The origin of these recorded values is ChEMBL document CHEMBL3885881.

species: Rattus norvegicus; experiment: DrugMatrix - Regimen: Daily Repeat; format: toxicity, organism-based, Sprague-Dawley; design: regimen Daily Repeat, gender Male, age 6-8 weeks; settings: in vivo, po, 1500 mg/kg, 120 h, tissue Plasma, route oral GAVAGE, dose level High, time 5 day, vehicle .5 % CMC
So basically: TOTAL PROTEIN at 6 G/DL or higher? That is True. Lower than 6 G/DL? That is False.

molecule	label
Cc1ccc(S(=O)(=O)NC(=O)NN2CC3CCCC3C2)cc1 (configuration not stated) [GLICLAZIDE]	False
CO[C@H]1/C=C/O[C@@]2(C)Oc3c(C)c(O)c4c(c3C2=O)C2=NC3(CCN(CC(C)C)CC3)NC2=C(NC(=O)/C(C)=C\C=C\[C@H](C)[C@H](O)[C@@H](C)[C@@H](O)[C@@H](C)[C@H](OC(C)=O)[C@@H]1C)C4=O	False
O=C(N[C@H](CO)[C@H](O)c1ccc([N+](=O)[O-])cc1)C(Cl)Cl	False
CNC(=C[N+](=O)[O-])NCCSCc1ccc(CN(C)C)o1	True

# evaluate next
# bool: TOTAL PROTEIN of "C[C@]1(Cn2ccnn2)[C@H](C(=O)O)N2C(=O)C[C@H]2S1(=O)=O" >= 6 G/DL
True
